Cited source for all entries: paper PMC7663272

Listed compounds paired with reported pIC50
target: BTK-wt (Homo sapiens, UniProt Q06187)
Sequence (Q06187 whole entry): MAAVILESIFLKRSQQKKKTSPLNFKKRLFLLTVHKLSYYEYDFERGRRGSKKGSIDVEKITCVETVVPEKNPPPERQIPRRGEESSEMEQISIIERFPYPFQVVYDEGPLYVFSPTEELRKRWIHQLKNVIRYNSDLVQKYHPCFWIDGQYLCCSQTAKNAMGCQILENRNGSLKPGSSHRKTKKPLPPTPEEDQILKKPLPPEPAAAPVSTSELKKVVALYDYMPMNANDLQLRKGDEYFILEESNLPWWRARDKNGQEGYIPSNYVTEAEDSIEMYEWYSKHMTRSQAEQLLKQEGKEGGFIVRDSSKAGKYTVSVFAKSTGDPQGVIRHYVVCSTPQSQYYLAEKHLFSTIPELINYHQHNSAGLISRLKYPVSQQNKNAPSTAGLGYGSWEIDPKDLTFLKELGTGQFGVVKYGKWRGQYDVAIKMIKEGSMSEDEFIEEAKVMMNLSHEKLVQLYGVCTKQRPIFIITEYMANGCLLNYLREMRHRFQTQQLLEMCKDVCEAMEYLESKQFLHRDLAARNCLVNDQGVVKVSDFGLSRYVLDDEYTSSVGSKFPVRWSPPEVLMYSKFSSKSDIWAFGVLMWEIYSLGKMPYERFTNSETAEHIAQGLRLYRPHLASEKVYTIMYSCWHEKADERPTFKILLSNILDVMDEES
pIC50: −log10 of the molar value.

// below: answered compounds
CC1(C)Oc2cc3oc(=O)ccc3cc2C[C@@H]1OC(=O)/C=C/c1ccc(F)cc1 [Compound 6]	< 5.00
CC1(C)Oc2cc3oc(=O)ccc3cc2C[C@@H]1OC(=O)/C=C/c1ccccc1 [Compound 5]	< 5.00
C=CS(=O)(=O)O[C@H]1Cc2cc3ccc(=O)oc3cc2OC1(C)C [Compound 9]	6.05
CC1(C)Oc2cc3oc(=O)ccc3cc2C[C@@H]1O [Compound 2, S-(+)-Decursinol]	< 5.00
C=CC(=O)O[C@H]1Cc2cc3ccc(=O)oc3cc2OC1(C)C [Compound 8]	6.10

Now turn to the next compound.
Query :: Given C/C=C/C(=O)O[C@H]1Cc2cc3ccc(=O)oc3cc2OC1(C)C [Compound 3] , respond with its pIC50.
Result :: < 5.00
